Cited source for all entries: BigSolDB 2.1

Settings: in n-hexane, 303.15 K
MEASURED_METRIC: solubility (mole fraction)
Answer field: number only, no words.

Give solubility (mole fraction) for the following compound: Clc1ncnc2[nH]ccc12
0.00132

* * *

Settings: in acetonitrile, 318.15 K
MEASURED_METRIC: solubility (mole fraction)
Answer field: number only, no words.

Give solubility (mole fraction) for the following compound: Clc1ncnc2[nH]ccc12
0.0104

* * *

Settings: in ethyl acetate, 318.15 K
MEASURED_METRIC: solubility (mole fraction)

Give solubility (mole fraction) for the following compound: Clc1ncnc2[nH]ccc12
0.034

* * *

Settings: in n-propanol, 278.15 K
MEASURED_METRIC: solubility (mole fraction)
Answer field: number only, no words.

Give solubility (mole fraction) for the following molecule: Clc1ncnc2[nH]ccc12
0.0098
